// reported EC50 per item
# System: SMN2-linked luciferase-reporter gene construct
# assay.remarks: SMN splice reporter assay (SMN2-linked luciferase reporter, Example 10)
# Format: cell-based
# measurement.conditions: SMN2-linked luciferase reporter, average
# Description: Cervical carcinoma cell lines were transformed with a SMN2-linked luciferase-reporter gene construct. The reporter is designed to detect shifts in the alternative splicing of SMN2 sequences. […] Luciferase sequences are in the correct translational reading frame only when the SMN2 sequences are spliced according to the normal SMN1 mechanism (e.g., splicing to include exon 7), which allows for translation of the stable SMN protein. […]

| compound | unit.descriptor | EC50 |
| --- | --- | --- |
| CC(C)c1ccc(N2Cc3cccc(Cl)c3C2=O)cc1 | nM | 470 |
| CCCOc1ccc2c(c1)C(=O)N(c1ccc(C(C)C)cc1)C2 | nM | 188 |
| CC(C)c1ccc(N2Cc3ccc(NS(C)(=O)=O)cc3C2=O)cc1 | nM | 757 |
| CC(C(=O)NS(=O)(=O)C(C)C)c1ccc(N2Cc3ccccc3C2=O)cc1 (centres unmarked) | nM | 568 |
| C=Cc1cccc2c1C(=O)N(c1ccc(C(C)C(=O)O)cc1)C2 (centres unmarked) | nM | 209 |
| Br.COCC(C)c1ccc(N2Cc3ccc(C)cc3C2=O)cc1 (centres unmarked) | nM | 159 |
| CC(C)c1ccc(N2Cc3cccc(I)c3C2=O)cc1 | nM | 183 |
| C=Cc1ccc2c(c1)C(=O)N(c1ccc(C(C)COC)cc1)C2 (centres unmarked) | nM | 76 |
| CC(=O)N(C)c1ccc2c(c1)C(=O)N(c1ccc(C(C)C)cc1)C2 | nM | 269 |
| COCC(C)c1ccc(N2Cc3cc4c(cc3C2=O)OCCO4)cc1 (centres unmarked) | nM | 3560 |
| COc1ccc2c(c1OC)C(=O)N(c1ccc(C(C)C)cc1)C2 | nM | 2670 |
| C/C=C\c1ccc2c(c1)C(=O)N(c1ccc(C(C)COC)cc1)C2 (centres unmarked) | nM | 902 |
| CC(C(=O)O)c1ccc(N2Cc3cc(-c4ccc(Cl)cc4)ccc3C2=O)cc1 (centres unmarked) | nM | 7740 |
| COC(=O)C(C)c1ccc(N2Cc3ccccc3C2=O)cc1 (centres unmarked) | nM | 174 |
| CC(C(=O)NO)c1ccc(N2Cc3ccccc3C2=O)cc1 (centres unmarked) | nM | 2270 |
| CC(C(=O)OC(C)(C)C)c1ccc(N2Cc3ccc(-c4cccnc4)cc3C2=O)cc1 (centres unmarked) | nM | 2 |
| CCCc1ccc2c(c1)C(=O)N(c1ccc(C(C)C(=O)OC(C)(C)C)cc1)C2 (centres unmarked) | nM | 565 |
| CC(C)=Cc1ccc2c(c1)C(=O)N(c1ccc(C(C)C)cc1)C2 | nM | 155 |
| CCCc1ccc2c(c1)C(=O)N(c1ccc(C(C)C)cc1)C2 | nM | 298 |
| CC(C(=O)OC(C)(C)C)c1ccc(N2Cc3ccccc3C2=O)cc1Br (centres unmarked) | nM | 2830 |
| Cc1cccc2c1C(=O)N(c1ccc(C(C)C)cc1)C2 | nM | 163 |
| CC(C(=O)O)c1ccc(N2Cc3ccccc3C2=O)c(Br)c1 (centres unmarked) | nM | 1250 |
| CC(C(=O)OC(C)(C)C)c1ccc(N2Cc3ccccc3C2=O)cc1 (centres unmarked) [ALB-111730] | nM | 1660 |
| O=C1c2cc(Br)ccc2CN1c1ccc(C2CC2)cc1 | nM | 22 |
| CCc1cccc2c1C(=O)N(c1ccc(C(C)C(=O)O)cc1)C2 (centres unmarked) | nM | 1840 |
| CCCCc1ccc2c(c1)C(=O)N(c1ccc(C(C)C(=O)O)cc1)C2 (centres unmarked) | nM | 61 |
| CC(C)c1ccc(N2Cc3ccc(N(C)C(=O)N(C)C)cc3C2=O)cc1 | nM | 493 |
| CC(C(=O)O)c1ccc(N2Cc3ccc(Br)cc3C2=O)cc1 (centres unmarked) | nM | 130 |
| CC(C(=O)O)c1ccc(N2Cc3c(cccc3-c3cncnc3)C2=O)cc1 (centres unmarked) | nM | 16000 |
| CCCCCOc1ccc2c(c1)CN(c1ccc(C(C)C(=O)O)cc1)C2=O (centres unmarked) | nM | 510 |
| Cc1ccc2c(c1)C(=O)N(c1ccc(C(C)C(=O)O)cc1)C2 (centres unmarked) | nM | 330 |
| CC(C)c1ccc(N2Cc3cc(OC(F)F)ccc3C2=O)cc1 | nM | 2090 |
| COCCOc1ccc2c(c1)C(=O)N(c1ccc(C(C)C(=O)O)cc1)C2 (centres unmarked) | nM | 824 |
| CC(C)c1ccc(N2Cc3cc(Br)ccc3C2=O)cc1 | nM | 145 |
| CC(C(=O)O)c1ccc(N2Cc3cccc(N)c3C2=O)cc1 (centres unmarked) [ALB-112062a] | nM | 329 |
| CNc1cccc2c1C(=O)N(c1ccc(C(C)C)cc1)C2 | nM | 414 |
| CC(C(=O)O)c1ccc(N2Cc3cc(C#N)ccc3C2=O)cc1 (centres unmarked) | nM | 6980 |
| Cc1cc(N2Cc3ccccc3C2=O)ccc1C(C)C(=O)OC(C)(C)C (centres unmarked) | nM | 2710 |

Where these numbers come from: patent US8110681B2
